Values were extracted from patent US20160177307.

Test system: VEGF-121 (Homo sapiens), P15692-9
Sequence: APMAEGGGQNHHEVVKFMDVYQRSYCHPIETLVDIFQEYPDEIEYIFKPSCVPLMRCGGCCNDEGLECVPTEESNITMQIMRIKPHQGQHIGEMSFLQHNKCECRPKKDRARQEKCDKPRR
Test: filter
Conditions: VEGF-3Heg-PDGF; NapdU, 2'-OMe
experimental readout: Kd (nM)
Could you give me the number in nM? Just the number is fine.

Prompt line: In one line, give reported Kd of the entry CCGTTCAAGTGCTTGTAGGATTTAAATGGCGACAGCATGTATGCACATCT [5169-4_96] .
Response line: 0.076

---

Test system: VEGF-121 (Homo sapiens), P15692-9
Sequence: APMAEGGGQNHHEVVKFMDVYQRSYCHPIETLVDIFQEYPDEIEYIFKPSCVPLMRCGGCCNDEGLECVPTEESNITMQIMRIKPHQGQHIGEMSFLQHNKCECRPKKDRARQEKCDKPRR
Experiment: filter
Conditions: all P are NapdU, rest DNA; SB18T, 37 C; Table 18 gives 728 pM
experimental readout: pKd
Keep it numeric: pKd is minus log10 of the concentration in mol/L.

Prompt line: Given the sequence AGCCGTTCAAGTGCTTGTAGGATTTAAATGG [4867-31_51] , write its reported pKd.
Response line: 9.70

---

Target: PDGF-BB (platelet-derived growth factor BB) (Homo sapiens) (UniProt P01127)
Sequence (P01127 82-190): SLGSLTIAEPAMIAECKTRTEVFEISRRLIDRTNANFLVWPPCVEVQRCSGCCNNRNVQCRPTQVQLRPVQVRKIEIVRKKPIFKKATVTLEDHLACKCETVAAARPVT
Assay: filter
Settings: Bn-dU; Pe-dU17; 2'-F C14; Heg; 2'-OMe
pKd: −log10 of the molar value.
experimental readout: pKd

Prompt line: Return value of pKd for input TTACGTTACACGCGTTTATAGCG [4149-8_351] , no commentary.
Response line: < 8.00

---

Test system: VEGF-121 (Homo sapiens), P15692-9
Sequence: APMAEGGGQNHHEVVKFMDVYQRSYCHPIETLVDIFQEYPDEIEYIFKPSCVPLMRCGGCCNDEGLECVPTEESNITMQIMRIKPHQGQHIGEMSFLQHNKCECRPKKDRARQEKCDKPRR
Test: filter
Settings: P=Nap-dU; C3 spacer at 39
experimental readout: pKd
pKd here: minus log base 10 of the concentration, concentration in moles per litre.

Prompt line: Supply measured pKd of CCCTCCATCAGCCGTTCAAGTGCTTGTAGGATTTAAATGAATTGGAGGA [4867-15_62] in your reply.
Response line: 7.28

---

System: VEGF-165 (Homo sapiens), P15692-4
Sequence: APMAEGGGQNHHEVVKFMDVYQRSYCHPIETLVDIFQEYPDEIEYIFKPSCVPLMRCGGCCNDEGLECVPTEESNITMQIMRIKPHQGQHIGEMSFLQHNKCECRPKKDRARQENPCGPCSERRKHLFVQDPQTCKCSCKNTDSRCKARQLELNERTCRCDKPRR
Experiment: filter
Details: PDGF-3Heg-VEGF; NapdU, BndU
experimental readout: pKd
# reply with the number alone; pKd is -log10 of concentration in mol/L

Prompt line: Look up pKd of TTACGTTACACGCGTTTATAGCGCCGTTCAAGTGCTTTAGATTTAAATG [4149-8_320] and report it.
Response line: 10.11

---

System: VEGF-121 (Homo sapiens), P15692-9
Sequence: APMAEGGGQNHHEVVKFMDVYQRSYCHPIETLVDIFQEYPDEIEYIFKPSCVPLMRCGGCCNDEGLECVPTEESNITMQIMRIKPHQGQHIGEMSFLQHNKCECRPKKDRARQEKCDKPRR
Experiment: filter
Conditions: P=Nap-dU; C3 spacer at 18
experimental readout: pKd
FYI, pKd means -log10 of a concentration in mol per litre.

Prompt line: Return reported pKd for target or system VEGF-121 (Homo sapiens), P15692-9, item CCCTCCATCAGCCGTTCAGTGCTTGTAGGATTTAAATGGAATTGGAGGA [4867-15_41] .
Response line: 7.89
